# Experimental system: T1, human α-CGRP (Homo sapiens, UniProt P06881)
# T1 construct: 1-37 (WT); purchased GenScript Corporation or Global Peptide Services
# T1 sequence (P06881 83-119 limits assumed): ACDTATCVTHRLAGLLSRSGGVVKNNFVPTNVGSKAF
# Experiment description: Biacore SPR affinity of Fab fragments to N-biotinylated human α-CGRP on SA chip
# Assay type: binding
# Condition label: 37° C., screening mode except underlined values
The label is condition met for α-human koff below 0.0006 s⁻¹ and condition not met for α-human koff equal to or exceeding 0.0006 s⁻¹.

molecule="M42: G1 variant; L1 R28N; L2 G50A L56T; H2 E54K A57N H61F; HC-FW3 L99T A100V (antibody, V domains shown) VH: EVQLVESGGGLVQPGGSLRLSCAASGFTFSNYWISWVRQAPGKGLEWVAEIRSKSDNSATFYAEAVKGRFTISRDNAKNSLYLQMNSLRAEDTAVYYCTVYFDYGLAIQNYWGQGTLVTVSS VL: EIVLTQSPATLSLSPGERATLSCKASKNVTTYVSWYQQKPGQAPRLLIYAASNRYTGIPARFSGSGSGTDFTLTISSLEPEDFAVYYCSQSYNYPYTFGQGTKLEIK" class_name="condition met"
molecule="M72: G1 variant; L1 R28N T30G; L2 L56S; H2 E54K; HC-FW3 L99T A100V (antibody, V domains shown) VH: EVQLVESGGGLVQPGGSLRLSCAASGFTFSNYWISWVRQAPGKGLEWVAEIRSKSDASATHYAEAVKGRFTISRDNAKNSLYLQMNSLRAEDTAVYYCTVYFDYGLAIQNYWGQGTLVTVSS VL: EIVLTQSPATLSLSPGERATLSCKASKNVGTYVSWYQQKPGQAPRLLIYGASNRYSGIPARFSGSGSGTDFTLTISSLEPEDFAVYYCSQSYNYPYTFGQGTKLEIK" class_name="condition met"
molecule="M79: G1 variant; L1 R28N T30S; L2 G50A L56T; H2 E54K A57P; HC-FW3 L99T A100V (antibody, V domains shown) VH: EVQLVESGGGLVQPGGSLRLSCAASGFTFSNYWISWVRQAPGKGLEWVAEIRSKSDPSATHYAEAVKGRFTISRDNAKNSLYLQMNSLRAEDTAVYYCTVYFDYGLAIQNYWGQGTLVTVSS VL: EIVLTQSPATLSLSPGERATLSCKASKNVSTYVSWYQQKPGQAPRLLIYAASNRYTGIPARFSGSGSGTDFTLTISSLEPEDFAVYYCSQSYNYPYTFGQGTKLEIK" class_name="condition not met"

*Q* Lab note: α-human koff threshold 0.0006 s⁻¹. Does this molecule come in strictly under it? M44: G1 variant; L1 R28N; L2 G50A L56T; H2 E54K A57N S58E; HC-FW3 L99T A100V (antibody, V domains shown) VH: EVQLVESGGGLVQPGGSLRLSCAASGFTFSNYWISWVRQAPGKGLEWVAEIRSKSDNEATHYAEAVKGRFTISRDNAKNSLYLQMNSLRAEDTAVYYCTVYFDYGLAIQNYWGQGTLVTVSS VL: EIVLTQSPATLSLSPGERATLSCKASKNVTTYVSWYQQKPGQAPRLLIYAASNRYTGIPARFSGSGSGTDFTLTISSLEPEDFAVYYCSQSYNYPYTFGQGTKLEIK
*A* condition met

*Q* Lab note: α-human koff threshold 0.0006 s⁻¹. Does this molecule come in strictly under it? M20: G1 variant; L1 R28W; HC-FW3 L99R A100L (antibody, V domains shown) VH: EVQLVESGGGLVQPGGSLRLSCAASGFTFSNYWISWVRQAPGKGLEWVAEIRSESDASATHYAEAVKGRFTISRDNAKNSLYLQMNSLRAEDTAVYYCRLYFDYGLAIQNYWGQGTLVTVSS VL: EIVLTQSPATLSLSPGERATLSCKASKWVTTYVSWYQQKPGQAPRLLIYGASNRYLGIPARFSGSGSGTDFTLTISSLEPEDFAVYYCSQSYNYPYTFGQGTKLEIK
*A* condition met

*Q* is_below(α-human koff, 0.0006 s⁻¹) for M40: G1 variant; L1 R28N; L2 G50A L56T; H2 E54K A57L; HC-FW3 L99T A100V (antibody, V domains shown) VH: EVQLVESGGGLVQPGGSLRLSCAASGFTFSNYWISWVRQAPGKGLEWVAEIRSKSDLSATHYAEAVKGRFTISRDNAKNSLYLQMNSLRAEDTAVYYCTVYFDYGLAIQNYWGQGTLVTVSS VL: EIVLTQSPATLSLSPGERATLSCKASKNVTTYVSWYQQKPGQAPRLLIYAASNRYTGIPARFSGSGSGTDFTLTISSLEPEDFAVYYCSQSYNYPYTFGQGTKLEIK ?
*A* condition not met

*Q* Dear reviewer, please state whether M38: G1 variant; L1 R28N T30W; HC-FW3 L99T A100V (antibody, V domains shown) VH: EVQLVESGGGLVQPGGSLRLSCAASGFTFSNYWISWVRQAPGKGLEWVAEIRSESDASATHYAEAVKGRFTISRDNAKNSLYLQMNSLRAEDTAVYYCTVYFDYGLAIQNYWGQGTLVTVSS VL: EIVLTQSPATLSLSPGERATLSCKASKNVWTYVSWYQQKPGQAPRLLIYGASNRYLGIPARFSGSGSGTDFTLTISSLEPEDFAVYYCSQSYNYPYTFGQGTKLEIK has α-human koff strictly beneath 0.0006 s⁻¹.
*A* condition met

*Q* Here's an entry: M70: G1 variant; L1 R28N T30G; L2 L561; H2 E54K A57S; HC-FW3 L99T A100V (antibody, V domains shown) VH: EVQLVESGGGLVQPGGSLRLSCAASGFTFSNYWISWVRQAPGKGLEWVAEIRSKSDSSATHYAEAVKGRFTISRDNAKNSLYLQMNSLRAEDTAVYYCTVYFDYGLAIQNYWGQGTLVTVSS VL: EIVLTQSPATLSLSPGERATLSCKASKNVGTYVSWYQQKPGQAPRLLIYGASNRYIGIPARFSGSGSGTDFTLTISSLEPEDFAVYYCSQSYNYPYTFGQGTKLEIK . Is its α-human koff below 0.0006 s⁻¹?
*A* condition met

*Q* α-human koff under 0.0006 s⁻¹? Item: M69: G1 variant; L1 R28N T30G; L2 L561; H2 E54K A57N S58E; HC-FW3 L99T A100V (antibody, V domains shown) VH: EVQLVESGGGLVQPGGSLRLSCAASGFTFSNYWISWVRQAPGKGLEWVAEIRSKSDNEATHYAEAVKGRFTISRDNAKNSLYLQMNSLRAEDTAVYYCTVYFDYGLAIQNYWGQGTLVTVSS VL: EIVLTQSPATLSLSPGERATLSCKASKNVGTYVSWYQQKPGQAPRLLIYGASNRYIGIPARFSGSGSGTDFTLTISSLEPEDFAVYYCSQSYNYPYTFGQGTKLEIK
*A* condition not met
